- Test system: Balb/c mice
- MEASUREMENT_DESCRIPTION: open-field test, Balb/c mice (passive type of emotional-stress reaction)
- Format: in vivo
- Parameters: key: sum of all locomotor activity counts (crossings + rearings) in 3 min
- CONDITION_PARAMETERS: 0.1 mg/kg i.p., M ± mx
- Method: The main point of this approach consists in comparative analysis of the behavioural effects of tested compounds in two inbred strains of mice Balb/c and C57B1/6 with different hereditary types of emotional-stress reactions (ESR). […] The anxioselectivity was evaluated according to coincidence of doses range which activated or inhibited the behavior of mice of different strains. […]
Assign Met to entries whose Total activity meets or exceeds 30; assign Not met to the rest.

Recorded results for 5 compounds are shown here.
C=CCSc1nc2ccc(OCC)cc2[nH]1 [IV, 2-Allylthio-5-ethoxybenzimidazole] = Not met
Cc1cc2nc(SCCCN3CCN(C)CC3)[nH]c2cc1C [XVII] = Not met
CCOc1ccc2nc(SCCN3CCOCC3)[nH]c2c1 [XII] = Met
Cc1cc2nc(SCCN3CCOCC3)[nH]c2cc1C [XV] = Not met
Cc1cc2nc(SCCN3CCCCC3)[nH]c2cc1C [XIV] = Not met

For the next question, use this compound.
// query Decide: Total activity of C=CCSc1nc2cc(C)c(C)cc2[nH]1 [III, 2-Allylthio-5,6-dimethylbenzimidazole] >= 30?
// result Met

----------
Reported melting point by item:
Structures can show the parent of a compound that is named as a salt.

// worked examples, melting point included
CCN(CC)CCSc1nc2ccccc2n1CCc1ccccc1 (as salt: hydrochloride) = 129 to 130 °C
C=CCSc1nc2ccc(OCC)cc2[nH]1 (as salt: hydrochloride) = 252 to 254 °C (dec.)
CCSc1nc2cc(C)c(C)cc2[nH]1 = 123 to 124 °C
C=CCSc1nc2cc(C)c(C)cc2[nH]1 (as salt: hydrochloride) = 119 to 120 °C
CCCSc1nc2cc(C)c(C)cc2[nH]1 = 122 to 123 °C

The compound listed as CCOc1ccc2nc(SCCN3CCCC3)[nH]c2c1 (as salt: hydrochloride) has a reported melting point of 127 to 130 °C (dec.)

The measured melting point associated with Cc1cc2nc(SCCN3CCCC3)[nH]c2cc1C (as salt: hydrochloride) (hydrate or solvate) reads 115 to 116 °C (dec.)

----------
Some compounds, each annotated with its measured Mean blood flow accelaration (aortic), change from basal level.
- Tested on: cats
- MEASUREMENT_DESCRIPTION: hemodynamics and activity of intact heart in cats under anesthesia
- Type: in vivo
- CONDITION_PARAMETERS: cats, 1.0 mg/kg i.v., after 20 min
State just the number; it will be interpreted in %.

CN(C)CCSc1nc2ccccc2n1CCc1ccccc1 = −2.8

The recorded Mean blood flow accelaration (aortic), change from basal level for CCOc1ccc2nc(SCCN(C)C)[nH]c2c1 is −6.2

----------
Below, each entry is listed alongside its reported time of remaining on the rotarod.
- System: outbred male mice
- MEASUREMENT_DESCRIPTION: rotarod test (myorelaxant activity)
- Assay type: in vivo
- CONDITION_PARAMETERS: 5.0 mg/kg, cut-off 120 sec

CCOc1ccc2nc(SCCN3CCOCC3)[nH]c2c1 = 120.0 + 0 sec
C=CCSc1nc2ccc(OCC)cc2[nH]1 = 120 + 0 sec
Cc1cc2nc(SCCN3CCCCC3)[nH]c2cc1C = 120 + 0 sec

The recorded time of remaining on the rotarod for Cc1cc2nc(SCCN3CCOCC3)[nH]c2cc1C is 120 + 0 sec

----------
- MEASUREMENT_DESCRIPTION: in vivo
- CONDITION_PARAMETERS: iv
MEASURED_ENDPOINT: LD50

Entry under test: CCN(CC)CCNC(=O)c1ccc(N)cc1 [Novocainamide, novocainamide, reference compound] . Its LD50 was 110 mg/kg

----------
- System: outbred male mice
- MEASUREMENT_DESCRIPTION: rotarod test (myorelaxant activity)
- Type: in vivo
- CONDITION_PARAMETERS: 0.1 mg/kg, cut-off 120 sec
MEASURED_ENDPOINT: time of remaining on the rotarod

Cc1cc2nc(SCCN3CCCCC3)[nH]c2cc1C = 120 + 0 sec
CCOc1ccc2nc(SCCN3CCOCC3)[nH]c2c1 = 120.0 + 0 sec
Cc1cc2nc(SCCN3CCOCC3)[nH]c2cc1C = 120 + 0 sec

In the following, a different compound is considered.
Entry C=CCSc1nc2ccc(OCC)cc2[nH]1 — recorded time of remaining on the rotarod = 120 + 0 sec

----------
- Tested on: outbred male rats
- MEASUREMENT_DESCRIPTION: conflict Vogel test (punished licking of water)
- Type: in vivo
- CONDITION_PARAMETERS: 10.0 mg/kg i.p., M ± mx
MEASURED_ENDPOINT: number of punished lickings (shocks received in 5-min session)
Output: the number by itself.

Solved cases (3 shown):
Cc1cc2nc(SCCN3CCCCC3)[nH]c2cc1C [XIV] = 36.0
CCOc1ccc2nc(SCCN3CCOCC3)[nH]c2c1 [XII] = 15.4
Cc1cc2nc(SCCN3CCOCC3)[nH]c2cc1C [XV] = 38.0

Consider the record given below.
Result for C=CCSc1nc2ccc(OCC)cc2[nH]1 [IV, 2-Allylthio-5-ethoxybenzimidazole] , tested on outbred male rats, number of punished lickings (shocks received in 5-min session): 35.8

----------
# Number of defecations listing for each entry below
- Test system: Balb/c mice
- MEASUREMENT_DESCRIPTION: open-field test, Balb/c mice (passive type of emotional-stress reaction)
- Assay type: in vivo
- CONDITION_PARAMETERS: 0.1 mg/kg i.p., M ± mx
- Description: The main point of this approach consists in comparative analysis of the behavioural effects of tested compounds in two inbred strains of mice Balb/c and C57B1/6 with different hereditary types of emotional-stress reactions (ESR). […] The anxioselectivity was evaluated according to coincidence of doses range which activated or inhibited the behavior of mice of different strains. […]
In your answer, state the number alone without any accompanying words.

Known Number of defecations results, listed for orientation:
C=CCSc1nc2ccc(OCC)cc2[nH]1 [IV, 2-Allylthio-5-ethoxybenzimidazole] = 0.6
CCOc1ccc2nc(SCCN(CC)CC)[nH]c2c1 [Compound IX] = 0.1
Cc1cc2nc(SCCN3CCCCC3)[nH]c2cc1C [XIV] = 1.3
Cc1cc2nc(SCCCN3CCN(C)CC3)[nH]c2cc1C [XVII] = 2.0
Cc1cc2nc(SCCN3CCOCC3)[nH]c2cc1C [XV] = 1.0
C=CCSc1nc2cc(C)c(C)cc2[nH]1 [III, 2-Allylthio-5,6-dimethylbenzimidazole] = 2.5

Now turn to the next compound.
Reported Number of defecations for CCOc1ccc2nc(SCCN3CCOCC3)[nH]c2c1 [XII] was 2.4

----------
- MEASUREMENT_DESCRIPTION: in vivo
- CONDITION_PARAMETERS: rat, iv
MEASURED_ENDPOINT: LD50

// LD50 lookup, compound = CCOc1ccc2nc(SCCN(CC)CC)[nH]c2c1 , result: 31.5 mg/kg

----------
Each entry below lists one item and its recorded Mean blood flow accelaration (aortic), change from basal level value.
- System: cats
- MEASUREMENT_DESCRIPTION: hemodynamics and activity of intact heart in cats under anesthesia
- Type: in vivo
- CONDITION_PARAMETERS: cats, 1.0 mg/kg i.v., after 2 min

Reference set, count: 2
CCN(CC)CCSc1nc2cc(C)c(C)cc2[nH]1.Cl.Cl [XXIII, reference compound] = −4.9 ± 4.7%
CCOc1ccc2nc(SCCN(C)C)[nH]c2c1 = +3.3 ± 2.7%

Next item in the queue.
// CN(C)CCSc1nc2ccccc2n1CCc1ccccc1 : Mean blood flow accelaration (aortic), change from basal level value = −1.4 +1.8%

----------
Measured latent time of sleep after sodium thiopental values are reported for all entries that follow.
- System: male outbred mice
- MEASUREMENT_DESCRIPTION: potentiation of sleep induced by sodium thiopental
- Format: in vivo
- CONDITION_PARAMETERS: 1.0 mg/kg i.p. 30 min before thiopental 70 mg/kg i.p.
Express your answer in s, writing the number without its unit.

Take a look at these entries with their results.
Cc1cc2nc(SCCN3CCOCC3)[nH]c2cc1C [XV] = 2.8
CCOc1ccc2nc(SCCN3CCOCC3)[nH]c2c1 [XII] = 2.78

Let me check: Cc1cc2nc(SCCN3CCCCC3)[nH]c2cc1C [XIV] , system male outbred mice, measured latent time of sleep after sodium thiopental is 2.5

Param item: C=CCSc1nc2ccc(OCC)cc2[nH]1 [IV, 2-Allylthio-5-ethoxybenzimidazole] ; param system: male outbred mice; output latent time of sleep after sodium thiopental: 2.7
